Below are IC50 values measured for Aurora kinase B (Homo sapiens, UniProt Q96GD4).

Ask: Lab request: please report IC50 under test system Aurora kinase B (Homo sapiens, UniProt Q96GD4) for "C[C@@H](NC(=O)OC(C)(C)C)C(=O)Nc1ccc2ncnc(Nc3cccc(Br)c3)c2c1"
Reply: > 100 µM

Ask: Lab request: please report IC50 under test system Aurora kinase B (Homo sapiens, UniProt Q96GD4) for "CSCC[C@@H](NC(=O)OC(C)(C)C)C(=O)Nc1ccc2ncnc(Nc3cccc(Br)c3)c2c1"
Reply: > 100 µM

Ask: Lab request: please report IC50 under test system Aurora kinase B (Homo sapiens, UniProt Q96GD4) for "CC(C)(C)OC(=O)NCC(=O)Nc1ccc2ncnc(Nc3cccc(C(F)(F)F)c3)c2c1"
Reply: 51 µM

Ask: Lab request: please report IC50 under test system Aurora kinase B (Homo sapiens, UniProt Q96GD4) for "CC(C)C[C@@H](NC(=O)OC(C)(C)C)C(=O)Nc1ccc2ncnc(Nc3cccc(C(F)(F)F)c3)c2c1"
Reply: > 100 µM

Ask: Lab request: please report IC50 under test system Aurora kinase B (Homo sapiens, UniProt Q96GD4) for "CC[C@H](C)[C@@H](NC(=O)OC(C)(C)C)C(=O)Nc1ccc2ncnc(Nc3cccc(C(F)(F)F)c3)c2c1"
Reply: > 100 µM

Ask: Lab request: please report IC50 under test system Aurora kinase B (Homo sapiens, UniProt Q96GD4) for "CC(C)(C)OC(=O)NCC(=O)Nc1ccc2ncnc(Nc3ccc(F)c(Cl)c3)c2c1"
Reply: 23.7 µM

Ask: Lab request: please report IC50 under test system Aurora kinase B (Homo sapiens, UniProt Q96GD4) for "CC(C)(C)OC(=O)NCC(=O)Nc1ccc2ncnc(Nc3cccc(Br)c3)c2c1"
Reply: 6.2 µM

Ask: Lab request: please report IC50 under test system Aurora kinase B (Homo sapiens, UniProt Q96GD4) for "C[C@@H](NC(=O)OC(C)(C)C)C(=O)Nc1ccc2ncnc(Nc3ccc(F)c(Cl)c3)c2c1"
Reply: > 100 µM

Ask: Lab request: please report IC50 under test system Aurora kinase B (Homo sapiens, UniProt Q96GD4) for "CC[C@H](C)[C@@H](NC(=O)OC(C)(C)C)C(=O)Nc1ccc2ncnc(Nc3ccc(F)c(Cl)c3)c2c1"
Reply: > 100 µM

Ask: Lab request: please report IC50 under test system Aurora kinase B (Homo sapiens, UniProt Q96GD4) for "CC(C)[C@@H](NC(=O)OC(C)(C)C)C(=O)Nc1ccc2ncnc(Nc3ccc(F)c(Cl)c3)c2c1"
Reply: > 100 µM

Ask: Lab request: please report IC50 under test system Aurora kinase B (Homo sapiens, UniProt Q96GD4) for "CSCC[C@@H](NC(=O)OC(C)(C)C)C(=O)Nc1ccc2ncnc(Nc3cccc(C(F)(F)F)c3)c2c1"
Reply: > 100 µM

###

Exercise: state measured pIC50 for each of the molecules provided.
# Measured Target: Epidermal growth factor receptor (Homo sapiens)
# Sequence (P00533 whole entry): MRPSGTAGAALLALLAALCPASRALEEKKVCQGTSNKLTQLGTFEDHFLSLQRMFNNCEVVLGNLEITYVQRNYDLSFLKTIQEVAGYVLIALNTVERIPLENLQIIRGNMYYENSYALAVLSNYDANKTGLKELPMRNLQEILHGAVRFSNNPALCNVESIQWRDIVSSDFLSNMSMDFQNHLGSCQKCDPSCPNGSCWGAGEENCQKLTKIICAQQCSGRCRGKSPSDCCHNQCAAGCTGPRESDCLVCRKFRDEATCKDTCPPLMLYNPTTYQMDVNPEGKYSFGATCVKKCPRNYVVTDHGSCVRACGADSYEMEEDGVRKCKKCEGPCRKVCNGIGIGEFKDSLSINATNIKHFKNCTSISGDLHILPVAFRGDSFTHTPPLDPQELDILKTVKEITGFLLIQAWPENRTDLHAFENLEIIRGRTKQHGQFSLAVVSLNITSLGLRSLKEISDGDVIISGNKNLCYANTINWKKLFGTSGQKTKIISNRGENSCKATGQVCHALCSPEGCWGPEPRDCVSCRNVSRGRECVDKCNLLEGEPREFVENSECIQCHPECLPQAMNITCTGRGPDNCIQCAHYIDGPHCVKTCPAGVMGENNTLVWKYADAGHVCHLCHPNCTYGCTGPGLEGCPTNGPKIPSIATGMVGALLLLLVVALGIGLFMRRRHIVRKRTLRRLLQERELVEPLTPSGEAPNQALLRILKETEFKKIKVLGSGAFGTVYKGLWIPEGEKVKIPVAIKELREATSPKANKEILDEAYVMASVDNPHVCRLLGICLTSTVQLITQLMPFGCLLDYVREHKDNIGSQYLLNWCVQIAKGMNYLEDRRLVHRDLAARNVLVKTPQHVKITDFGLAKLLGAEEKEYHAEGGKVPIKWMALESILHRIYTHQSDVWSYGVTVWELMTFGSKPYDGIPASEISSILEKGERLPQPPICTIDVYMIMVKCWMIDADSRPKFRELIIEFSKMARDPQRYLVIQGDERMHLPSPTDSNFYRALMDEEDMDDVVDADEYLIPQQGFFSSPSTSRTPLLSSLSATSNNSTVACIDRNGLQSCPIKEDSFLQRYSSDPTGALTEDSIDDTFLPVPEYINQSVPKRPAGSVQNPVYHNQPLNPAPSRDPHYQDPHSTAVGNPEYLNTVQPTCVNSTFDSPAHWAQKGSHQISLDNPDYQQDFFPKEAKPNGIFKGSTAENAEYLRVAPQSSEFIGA
By convention, pIC50 is the negative base-10 log of a molar concentration.

Ask: Lab request: please report pIC50 under test system Epidermal growth factor receptor (Homo sapiens) for "CC(C)C[C@@H](NC(=O)OC(C)(C)C)C(=O)Nc1ccc2ncnc(Nc3ccc(F)c(Cl)c3)c2c1"
Reply: 6.85

Ask: Lab request: please report pIC50 under test system Epidermal growth factor receptor (Homo sapiens) for "CC(C)[C@@H](NC(=O)OC(C)(C)C)C(=O)Nc1ccc2ncnc(Nc3cccc(C(F)(F)F)c3)c2c1"
Reply: 5.99

Ask: Lab request: please report pIC50 under test system Epidermal growth factor receptor (Homo sapiens) for "CC(C)C[C@@H](NC(=O)OC(C)(C)C)C(=O)Nc1ccc2ncnc(Nc3cccc(Br)c3)c2c1"
Reply: 6.84
